- Target or test system: PDE9A2 Q453E mutant (PDE9Q453E) (Homo sapiens, UniProt O76083, Q513E)
- Construct: The catalytic domain of the PDE9Q453E mutant (10–15 mg/mL, amino acids 181–506)
- Sequence (O76083 241-566 Q513E): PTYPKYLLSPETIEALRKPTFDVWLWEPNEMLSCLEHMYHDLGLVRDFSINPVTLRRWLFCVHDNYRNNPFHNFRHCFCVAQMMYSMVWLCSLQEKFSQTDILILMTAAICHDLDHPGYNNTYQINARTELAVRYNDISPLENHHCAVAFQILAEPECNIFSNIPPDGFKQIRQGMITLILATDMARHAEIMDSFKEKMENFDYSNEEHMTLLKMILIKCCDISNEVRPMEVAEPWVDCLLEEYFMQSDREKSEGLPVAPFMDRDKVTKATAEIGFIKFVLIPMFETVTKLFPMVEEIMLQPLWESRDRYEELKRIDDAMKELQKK
- Assay text: PDE9A2 enzymatic assay, IC50 of inhibitors (3H-cGMP substrate)
- Assay context: Q453E mutant; 30 nM 3H-cGMP
Quantity: IC50 (µM)
Just the number please, in µM, no unit attached.

What IC50 appears in the records for this compound with PDE9A2 Q453E mutant (PDE9Q453E) (Homo sapiens, UniProt O76083, Q513E)? `CCCOc1ccccc1-c1nc2nn[nH]c2c(=O)[nH]1`
53.7
